- ASSAY_OVERVIEW: Pharmacokinetic interactions between HEJG and lopinavir in rats
- APPLIED_CONDITIONS: male, Sprague-Dawley, rat, plasma, po, 160 mg/kg, AUC(0-inf), lopinavir in rat plasma; HEJG (3 g/kg, i.g.) + lopinavir (160 mg/kg, i.g.)
MEASURED_PARAMETER: AUC(0-inf) (ng·h/mL)

| MOL_SMILES | NUMERIC_RESULT |
| --- | --- |
| Cc1cccc(C)c1OCC(=O)N[C@@H](Cc1ccccc1)[C@@H](O)C[C@H](Cc1ccccc1)NC(=O)[C@H](C(C)C)N1CCCNC1=O | 10200 |

* * *

- MEASURED_TARGET: CYP3A (Homo sapiens)
- Sequence (P08684 2-503): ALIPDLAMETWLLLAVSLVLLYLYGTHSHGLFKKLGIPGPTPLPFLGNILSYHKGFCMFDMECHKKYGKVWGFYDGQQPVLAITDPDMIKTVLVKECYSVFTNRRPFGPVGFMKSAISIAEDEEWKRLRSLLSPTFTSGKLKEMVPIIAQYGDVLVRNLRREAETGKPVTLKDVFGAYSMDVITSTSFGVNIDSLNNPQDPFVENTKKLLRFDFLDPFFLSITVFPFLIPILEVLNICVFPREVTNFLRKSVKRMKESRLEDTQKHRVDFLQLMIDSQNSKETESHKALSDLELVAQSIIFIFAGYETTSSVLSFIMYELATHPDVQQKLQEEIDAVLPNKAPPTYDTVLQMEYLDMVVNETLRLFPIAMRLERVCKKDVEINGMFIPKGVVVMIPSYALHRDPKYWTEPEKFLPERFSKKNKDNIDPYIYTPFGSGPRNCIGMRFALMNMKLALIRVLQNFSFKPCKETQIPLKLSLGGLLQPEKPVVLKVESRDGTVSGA
- ASSAY_OVERVIEW: in vitro
- APPLIED_CONDITIONS: microsomes, pH 7.4

| COMPOUND | IC50 shift |
| --- | --- |
| O=c1c(O)c(-c2ccc(O)cc2)oc2cc(O)cc(O)c12 [Kaempferol] | 2.01 |

* * *

- ASSAY_OVERVIEW: Pharmacokinetic interactions between HEJG and lopinavir in rats
- APPLIED_CONDITIONS: male, Sprague-Dawley, rat, plasma, po, 160 mg/kg, Cmax, lopinavir in rat plasma; HEJG (3 g/kg, i.g.) + lopinavir (160 mg/kg, i.g.)

| MOL_SMILES | Cmax, ng/mL |
| --- | --- |
| Cc1cccc(C)c1OCC(=O)N[C@@H](Cc1ccccc1)[C@@H](O)C[C@H](Cc1ccccc1)NC(=O)[C@H](C(C)C)N1CCCNC1=O | 1860 |

* * *

- System: CYP3A
- ASSAY_OVERVIEW: in vitro
- APPLIED_CONDITIONS: human, human liver microsomes, pH 7.4, probe testosterone (6β-hydroxylation), Time-dependent inhibition IC50 Preincubation for 33 min, constituents; HLMs; 33 min preincubation
pIC50: −log10 of the molar value.

| MOL_SMILES | pIC50 |
| --- | --- |
| COc1cc(O)ccc1/C=C/C(=O)c1ccc(O)cc1 | 5.09 |

* * *

- ASSAY_OVERVIEW: Pharmacokinetic interactions between HEJG and lopinavir in rats
- APPLIED_CONDITIONS: male, Sprague-Dawley, rat, plasma, po, 160 mg/kg, AUC(0-inf), lopinavir in rat plasma; Water + lopinavir (160 mg/kg, i.g.), control group

| MOL_SMILES | AUC(0-inf) |
| --- | --- |
| Cc1cccc(C)c1OCC(=O)N[C@@H](Cc1ccccc1)[C@@H](O)C[C@H](Cc1ccccc1)NC(=O)[C@H](C(C)C)N1CCCNC1=O | 4190 ng·h/mL |

* * *

- ASSAY_OVERVIEW: Pharmacokinetic interactions between HEJG and lopinavir in rats
- APPLIED_CONDITIONS: male, Sprague-Dawley, rat, plasma, po, 160 mg/kg, Cmax, lopinavir in rat plasma; Water + lopinavir (160 mg/kg, i.g.), control group

| MOL_SMILES | MEASUREMENT_UNIT | Cmax |
| --- | --- | --- |
| Cc1cccc(C)c1OCC(=O)N[C@@H](Cc1ccccc1)[C@@H](O)C[C@H](Cc1ccccc1)NC(=O)[C@H](C(C)C)N1CCCNC1=O | ng/mL | 1280 |

* * *

- Test system: CYP3A
- ASSAY_OVERVIEW: in vitro
- APPLIED_CONDITIONS: human, human liver microsomes, pH 7.4, probe testosterone (6β-hydroxylation)

| MOL_SMILES | MEASURED_TARGET | IC50 [µM] |
| --- | --- | --- |
| O=c1c(O)c(-c2ccc(O)c(O)c2)oc2cc(O)cc(O)c12 | CYP3A | 3.95 |
